Provenance of the data: paper PMC12069442

system: rat liver microsomes (RLM); assay: Inhibitor screening on ziprasidone metabolism in RLM; format: in vitro ADME; settings: 100 μM inhibitor, 0.3 mg/mL RLM, ziprasidone 10 μM, 20 min
value kind: Relative activity (%)
Output spec: scalar in %, unitless text.

O=C(O)[C@H]1O[C@@H](Oc2cc3oc(-c4ccccc4)cc(=O)c3c(O)c2O)[C@H](O)[C@@H](O)[C@@H]1O [Baicalin]	87.83
O=c1cc(-c2ccc(O)cc2)oc2cc(O)cc(O)c12 [Apigenin]	31.41
COCCOC(=O)C1=C(C)NC(C)=C(C(=O)OC(C)C)C1c1cccc([N+](=O)[O-])c1 (stereo not shown) [Nimodipine]	49.68

// switching to the query compound
Ask: Check the records and state Relative activity (%) for COc1ccccc1OCCNCC(O)COc1cccc2[nH]c3ccccc3c12 (stereo not shown) [Carvedilol]
Result: 29.89
